# Read-out: CD69, CD69 (gene 969)
# assay summary: BSK_SAg_CD69: BioMAP Diversity Plus: SAg Assay for CD69 Biomarker Activity (AID 2283089)
# measurement parameters: primary human HUVEC with PBMC; actives raise or lower the signal
Calls of active or inactive are those of the source. How the source made its calls: active means hit-call score of the fitted dose curve at least 0.9, where 1 is the maximum; inactive means score below 0.9.
Outcome (select one): active, inactive

Worked examples follow.
- compound: "C=CC(=O)OCCCCCC(C)C"
  class label: "inactive"
- compound: "O=c1[nH]c(=O)[nH]c(=O)[nH]1"
  class label: "inactive"
- compound: "Cn1sc(Cl)cc1=O"
  class label: "active"
- compound: "CCNc1nc(NC(C)(C)C)nc(SC)n1"
  class label: "active"
- compound: "O=[N+]([O-])c1ccc(O)c([N+](=O)[O-])c1"
  class label: "inactive"
- compound: "CC(=O)[O][Hg][c]1ccccc1"
  class label: "active"

Exercise: What classification did O=C(OC1CCCCC1)c1ccccc1C(=O)OC1CCCCC1 end up with in this test?
Solution: active

Exercise: Just curious, what result did Nc1cccc2ccccc12 get here?
Solution: inactive

Exercise: Check the results log: what was the call for CCOP(=S)(OCC)Oc1ccc(S(C)=O)cc1 (stereo not drawn) ?
Solution: inactive

====

# Read-out: BCL2L11 (gene 10018)
# assay summary: LTEA_HepaRG_BCL2L11: Life Technologies and Expression Analysis (LTEA) Assay for Bcl-2 (BCL2L11) gene using HepaRG (AID 2283473)
# measurement parameters: mRNA level, 48 h; actives raise or lower the signal
Calls of active or inactive are those of the source. How the source made its calls: active means hit-call score of the fitted dose curve at least 0.9, where 1 is the maximum; inactive means score below 0.9.
Form entry, call: pick from active, inactive

Past entries and their recorded results:
- compound: "CCOP(=S)(OCC)SCSP(=S)(OCC)OCC"
  class label: "active"
- compound: "O=c1[nH]c(=O)[nH]c(=O)[nH]1"
  class label: "inactive"
- compound: "O=C(O)C(Cl)(Cl)Cl"
  class label: "inactive"
- compound: "NC(=O)O"
  class label: "inactive"
- compound: "CCN1CCC2(CC1)COc1cc3c(cc12)N(C(=O)c1ccc(-c2ccc(-c4nnc(C)o4)cc2C)cc1)CC3"
  class label: "inactive"
- compound: "CCC(=O)C(CC(C)N(C)C)(c1ccccc1)c1ccccc1 (stereo not drawn)"
  class label: "inactive"

Exercise: What was the test verdict on CN(C)N=O ?
Solution: inactive

Exercise: Per the assay record, what outcome was assigned to CC12CC1(C)C(=O)N(c1cc(Cl)cc(Cl)c1)C2=O (stereo not drawn) ?
Solution: inactive

====

# Read-out: Cytochrome P450 7A1 (Homo sapiens)
# assay summary: LTEA_HepaRG_CYP7A1: Life Technologies and Expression Analysis (LTEA) Assay for Cytochrome P450 7A1 (CYP7A1) using HepaRG (AID 2283496)
# measurement parameters: mRNA level, 48 h; actives raise or lower the signal
Activity calls are given as the source filed them. Rule for the calls: active = hit-call score of the fitted dose curve at least 0.9, where 1 is the maximum; inactive = score below 0.9.
readout kind: AC50

The cases that follow already have their AC50 on record.
- compound: "Cn1sc(Cl)cc1=O"
  AC50: "inactive"
- compound: "O=C1C2(Cl)C3(Cl)C4(Cl)C(Cl)(Cl)C5(Cl)C3(Cl)C1(Cl)C5(Cl)C24Cl (stereo unspecified)"
  AC50: "20.6 µM (active)"
- compound: "CCOP(=S)(OCC)SCSP(=S)(OCC)OCC"
  AC50: "9.92 µM (active)"
- compound: "CCC(=O)C(CC(C)N(C)C)(c1ccccc1)c1ccccc1 (stereo unspecified)"
  AC50: "inactive"
- compound: "O=C(O)C(F)(F)C(F)(F)C(F)(F)C(F)(F)C(F)(F)C(F)(F)C(F)(F)C(F)(F)C(F)(F)C(F)(F)F"
  AC50: "46.5 µM (active)"
- compound: "CCC(C)(C)c1ccc(O)c(C(C)(C)CC)c1"
  AC50: "inactive"
- compound: "O=C(O)C(Cl)(Cl)Cl"
  AC50: "inactive"
- compound: "NC(=O)O"
  AC50: "inactive"
- compound: "O=C(Nc1ccc2[nH]ccc2c1)c1cc2cc(F)ccc2n1Cc1cccc(F)c1"
  AC50: "30.7 µM (active)"
- compound: "CC(C)(OO)c1ccccc1"
  AC50: "inactive"

We next turn to a different compound, shown below.
Exercise: Please look up its AC50: CCN1CCC2(CC1)COc1cc3c(cc12)N(C(=O)c1ccc(-c2ccc(-c4nnc(C)o4)cc2C)cc1)CC3
Solution: inactive
